# Study System: recombinant soluble homotrimeric HA of A/Anhui/1/05 (H5N1) (Influenza A virus A/Anhui/1/2005(H5N1))
# Protocol Summary: HA microarray, BCC supernatant
# Applied Conditions: remark: other sources report otherwise
Measurement Kind: Trimeric HA Binding: RLU (RLU)
Give the value in RLU but do not write RLU after it.

Would you please look over these solved cases?
| Binder | Meas Value |
| --- | --- |
| TCN-527 (5086_C06) (antibody, V domains shown) VH: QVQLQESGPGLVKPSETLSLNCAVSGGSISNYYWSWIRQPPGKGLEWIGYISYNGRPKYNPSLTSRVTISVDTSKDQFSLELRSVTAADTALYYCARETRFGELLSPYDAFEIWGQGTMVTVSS VL: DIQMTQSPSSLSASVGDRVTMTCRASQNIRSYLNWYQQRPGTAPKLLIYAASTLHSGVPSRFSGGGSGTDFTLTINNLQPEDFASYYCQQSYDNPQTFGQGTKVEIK | 21400 |
| TCN-536 (5095_N01) (antibody, V domains shown) VH: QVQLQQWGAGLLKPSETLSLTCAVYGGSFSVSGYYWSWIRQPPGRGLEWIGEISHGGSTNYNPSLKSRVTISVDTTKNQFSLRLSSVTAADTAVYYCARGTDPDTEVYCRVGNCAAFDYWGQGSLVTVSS VL: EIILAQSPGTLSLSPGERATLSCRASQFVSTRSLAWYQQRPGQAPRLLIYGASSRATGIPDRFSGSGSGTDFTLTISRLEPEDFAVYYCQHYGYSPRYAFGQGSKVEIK | 543 |

Record request: Trimeric HA Binding: RLU value, item TCN-531 (5091_H13) (antibody, V domains shown) VH: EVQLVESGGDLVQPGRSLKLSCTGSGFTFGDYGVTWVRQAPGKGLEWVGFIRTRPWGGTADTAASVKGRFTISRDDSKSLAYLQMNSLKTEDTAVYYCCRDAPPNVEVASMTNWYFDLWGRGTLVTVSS VL: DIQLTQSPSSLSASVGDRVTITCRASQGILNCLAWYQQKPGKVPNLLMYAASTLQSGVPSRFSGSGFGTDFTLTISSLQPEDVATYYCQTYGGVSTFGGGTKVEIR
3610
